System: RH-1;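 further: growth inhibition of human RH-1 cells, read out with a cell viability assay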
Experimental Details: cells
Type: functional, cell-based, Homo sapiens
Test Parameters: Homo sapiens, RH-1
Description: SANGER: Inhibition of human RH-1 cell growth in a cell viability assay.
pIC50: −log10 of the molar value.
Measured pIC50 values are reported for all entries that follow.

Please review the entries below; each comes with its answer.
# query: pIC50 of entry NC(=O)c1ccc(N(C(N)=O)c2c(F)cccc2F)nc1-c1ccc(F)cc1F [VX-702] < 5.70

If you can, please state the reported pIC50 value of O=C1NC(=O)c2c1c(-c1ccccc1Cl)cc1[nH]c3ccc(O)cc3c21 . < 5.70

Next:
Name the recorded pIC50 for NC1(c2ccc(-c3nc4ccn5c(=O)[nH]nc5c4cc3-c3ccccc3)cc2)CCC1 [MK-2206] . < 5.40

src = ChEMBL document CHEMBL1201861
